B1: library; a variant is named by its letters at N, in order (parent)
chain: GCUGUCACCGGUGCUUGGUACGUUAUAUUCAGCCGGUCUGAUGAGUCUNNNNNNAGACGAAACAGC

# Variants of: B1
# test protocol: FACS-Seq fitted mean relative fluorescence mCherry/BFP with ligand (log10 relative fluorescence); HEK293T overexpressing SLC46A1; ligand concentration (+) FACS-Seq: 6 mM; higher = higher reporter protein expression
# setup conditions: with (6R,S)-folinic acid; ligand present: yes
quantity kind: FACS-Seq fitted mean (log10)
Answer with a number only.

// recorded FACS-Seq fitted mean (log10) for `AAACAA` : 0.436

// recorded FACS-Seq fitted mean (log10) for `AAACAU` : 0.199

// recorded FACS-Seq fitted mean (log10) for `UUAGGC` : 0.465

// recorded FACS-Seq fitted mean (log10) for `ACGUUA` : 0.285

// recorded FACS-Seq fitted mean (log10) for `AGUUGU` : 0.521

// recorded FACS-Seq fitted mean (log10) for `AAAUUG` : 0.102

// recorded FACS-Seq fitted mean (log10) for `GACAUA` : 0.303

// recorded FACS-Seq fitted mean (log10) for `AGGUUA` : 0.384

// recorded FACS-Seq fitted mean (log10) for `GUAAGG` : 0.381

// recorded FACS-Seq fitted mean (log10) for `CACAAA` : 0.462

// recorded FACS-Seq fitted mean (log10) for `AAGAUU` : 0.312

// recorded FACS-Seq fitted mean (log10) for `UGCGUG` : 0.36

// recorded FACS-Seq fitted mean (log10) for `AUAGUA` : 0.273

// recorded FACS-Seq fitted mean (log10) for `GAGUGU` : 0.322

// recorded FACS-Seq fitted mean (log10) for `GUUACC` : 0.281

// recorded FACS-Seq fitted mean (log10) for `ACAACA` : 0.27

// recorded FACS-Seq fitted mean (log10) for `GUGCUG` : -0.879

// recorded FACS-Seq fitted mean (log10) for `GCUGCC` : 0.484

// recorded FACS-Seq fitted mean (log10) for `AAUGGU` : 0.51

// recorded FACS-Seq fitted mean (log10) for `AAGGUA` : 0.228

// recorded FACS-Seq fitted mean (log10) for `AACGCA` : 0.533

// recorded FACS-Seq fitted mean (log10) for `GUUAGG` : 0.301
